Every entry's value here was drawn from ChEMBL document CHEMBL3734698.

# assay.overview: Cmax in rat at 5 mg/kg, po
# Assay type: ADME, organism-based
# Parameters: dose 5 mg/kg, route oral
# test.parameters: in vivo
Define the label as 1 (yes) when Cmax is strictly less than 400 ng/mL and as 0 (no) in all remaining cases.

| cpd.smiles | discrete.label |
| --- | --- |
| O=C(c1ccccn1)[C@]12Cc3cnn(-c4ccc(F)cc4)c3C=C1CCN(S(=O)(=O)c1ccc(Cl)c(Cl)c1)C2 | 0 (no) |
| O=C(c1ccccn1)[C@]12Cc3cnn(-c4ccc(F)cc4)c3C=C1CCN(S(=O)(=O)c1ccc(F)c(C(F)(F)F)c1)C2 | 1 (yes) |
| O=C(c1ccccn1)[C@]12Cc3cnn(-c4ccc(F)cc4)c3C=C1CCN(S(=O)(=O)c1ccc(C(F)(F)F)c(F)c1)C2 | 1 (yes) |
| O=C(c1ccccn1)[C@]12Cc3cnn(-c4ccc(F)cc4)c3C=C1CCN(S(=O)(=O)c1cccc(Cl)c1)C2 | 1 (yes) |
| O=C(c1ccccn1)[C@]12Cc3cnn(-c4ccc(F)cc4)c3C=C1CCN(S(=O)(=O)c1ccc(C(F)(F)F)cc1)C2 | 1 (yes) |
| O=C(c1ccccn1)[C@]12Cc3cnn(-c4ccc(F)cc4)c3C=C1CCN(S(=O)(=O)c1cccc(C(F)(F)F)c1)C2 | 1 (yes) |

====

# assay.target: Glucocorticoid receptor (Rattus norvegicus, UniProt P06536)
# Sequence (P06536 whole entry): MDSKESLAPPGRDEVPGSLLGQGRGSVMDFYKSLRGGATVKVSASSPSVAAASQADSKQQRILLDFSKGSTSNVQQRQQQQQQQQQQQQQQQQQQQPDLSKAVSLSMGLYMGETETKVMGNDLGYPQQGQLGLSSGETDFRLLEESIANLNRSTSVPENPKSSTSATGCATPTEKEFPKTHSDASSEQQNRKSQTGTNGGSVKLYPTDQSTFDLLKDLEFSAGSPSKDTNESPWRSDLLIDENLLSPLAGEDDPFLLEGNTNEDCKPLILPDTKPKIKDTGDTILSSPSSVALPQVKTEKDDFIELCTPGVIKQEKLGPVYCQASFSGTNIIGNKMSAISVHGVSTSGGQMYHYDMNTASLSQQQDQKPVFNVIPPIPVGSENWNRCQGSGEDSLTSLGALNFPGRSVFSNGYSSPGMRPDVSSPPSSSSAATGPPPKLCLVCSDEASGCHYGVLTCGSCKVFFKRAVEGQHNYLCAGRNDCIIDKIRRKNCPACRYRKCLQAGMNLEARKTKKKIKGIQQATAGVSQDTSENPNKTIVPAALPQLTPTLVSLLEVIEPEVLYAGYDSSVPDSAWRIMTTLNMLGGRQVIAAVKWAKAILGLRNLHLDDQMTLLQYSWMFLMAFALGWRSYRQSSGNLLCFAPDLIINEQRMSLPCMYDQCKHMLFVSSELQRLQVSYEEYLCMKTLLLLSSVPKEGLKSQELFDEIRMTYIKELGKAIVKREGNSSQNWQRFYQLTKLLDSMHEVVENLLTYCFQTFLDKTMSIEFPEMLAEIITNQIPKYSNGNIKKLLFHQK
# assay.overview: Antagonist activity at glucocorticoid receptor in rat H4IIEC3 cells assessed as glucocorticoid-induced TAT activity
# Format: cell-based

| cpd.smiles | assay.target | Ki [nM] |
| --- | --- | --- |
| O=C(c1ccccn1)[C@]12Cc3cnn(-c4ccc(F)cc4)c3C=C1CCN(S(=O)(=O)c1ccc(Cl)c(Cl)c1)C2 | Glucocorticoid receptor (Rattus norvegicus, UniProt P06536) | 8.5 |

====

# assay.overview: Oral bioavailability in rat at 5 mg/kg
# Assay type: ADME, organism-based
# test.parameters: in vivo
recorded.endpoint: bioavailability (%)

| cpd.smiles | quantitative.readout |
| --- | --- |
| O=C(c1ccccn1)[C@]12Cc3cnn(-c4ccc(F)cc4)c3C=C1CCN(S(=O)(=O)c1ccc(C(F)(F)F)cc1)C2 | 31 |

====

# assay.target: Voltage-gated inwardly rectifying potassium channel KCNH2 (Homo sapiens, UniProt Q12809)
# Sequence (Q12809 whole entry): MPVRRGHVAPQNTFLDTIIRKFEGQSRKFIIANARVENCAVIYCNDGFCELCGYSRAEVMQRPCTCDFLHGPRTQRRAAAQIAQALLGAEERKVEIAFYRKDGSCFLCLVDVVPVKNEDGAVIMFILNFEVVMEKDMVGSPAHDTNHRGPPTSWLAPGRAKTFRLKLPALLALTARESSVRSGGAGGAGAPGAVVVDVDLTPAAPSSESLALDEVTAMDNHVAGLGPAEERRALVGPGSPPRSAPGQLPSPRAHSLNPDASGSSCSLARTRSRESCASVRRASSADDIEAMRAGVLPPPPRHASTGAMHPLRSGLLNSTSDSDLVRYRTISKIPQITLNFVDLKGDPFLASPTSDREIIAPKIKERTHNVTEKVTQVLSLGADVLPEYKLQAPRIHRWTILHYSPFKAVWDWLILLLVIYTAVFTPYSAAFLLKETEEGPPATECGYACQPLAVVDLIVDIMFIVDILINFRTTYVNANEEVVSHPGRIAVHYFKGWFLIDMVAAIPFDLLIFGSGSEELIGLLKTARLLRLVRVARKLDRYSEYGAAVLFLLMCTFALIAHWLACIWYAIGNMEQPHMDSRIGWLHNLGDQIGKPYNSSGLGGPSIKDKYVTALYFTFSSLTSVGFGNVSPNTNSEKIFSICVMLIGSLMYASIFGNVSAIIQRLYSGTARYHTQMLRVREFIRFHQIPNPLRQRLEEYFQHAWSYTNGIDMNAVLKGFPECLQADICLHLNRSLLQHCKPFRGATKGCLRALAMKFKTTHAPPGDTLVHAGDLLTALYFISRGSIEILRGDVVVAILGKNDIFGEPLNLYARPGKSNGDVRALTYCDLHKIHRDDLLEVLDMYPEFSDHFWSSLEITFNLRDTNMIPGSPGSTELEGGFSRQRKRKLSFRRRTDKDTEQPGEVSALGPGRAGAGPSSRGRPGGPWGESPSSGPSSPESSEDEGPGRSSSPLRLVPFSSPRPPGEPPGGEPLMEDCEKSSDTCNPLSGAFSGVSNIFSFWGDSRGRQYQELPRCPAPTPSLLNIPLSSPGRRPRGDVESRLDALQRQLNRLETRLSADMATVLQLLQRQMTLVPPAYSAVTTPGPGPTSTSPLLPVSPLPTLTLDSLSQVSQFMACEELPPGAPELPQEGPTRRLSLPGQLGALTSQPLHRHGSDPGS
# assay.overview: Inhibition of human ERG by patch clamp technique
pIC50: −log10 of the molar value.

| cpd.smiles | pIC50 |
| --- | --- |
| COc1cccc(S(=O)(=O)N2CCC3=Cc4c(cnn4-c4ccc(F)cc4)C[C@]3(C(=O)c3ccccn3)C2)c1 | < 4.72 |
| O=C(c1ccccn1)[C@]12Cc3cnn(-c4ccc(F)cc4)c3C=C1CCN(S(=O)(=O)c1ccc(Cl)c(Cl)c1)C2 | < 5.00 |
| O=C(c1ccccn1)[C@]12Cc3cnn(-c4ccc(F)cc4)c3C=C1CCN(S(=O)(=O)c1ccc(C(F)(F)F)cc1)C2 | 5.30 |

====

# assay.overview: Clearance in rat at 1 mg/kg, iv
# Format: ADME, organism-based
# test.parameters: in vivo
Output true (1) for clearance not less than 30 mL/min/kg; output false (0) otherwise.

| compound | discrete.label |
| --- | --- |
| O=C(c1ccccn1)[C@]12Cc3cnn(-c4ccc(F)cc4)c3C=C1CCN(S(=O)(=O)c1ccc(C(F)(F)F)c(F)c1)C2 | false (0) |
| O=C(c1ccccn1)[C@]12Cc3cnn(-c4ccc(F)cc4)c3C=C1CCN(S(=O)(=O)c1ccc(F)c(F)c1)C2 | true (1) |
| O=C(c1ccccn1)[C@]12Cc3cnn(-c4ccc(F)cc4)c3C=C1CCN(S(=O)(=O)c1cccc(Cl)c1)C2 | true (1) |
| O=C(c1ccccn1)[C@]12Cc3cnn(-c4ccc(F)cc4)c3C=C1CCN(S(=O)(=O)c1ccc(F)c(C(F)(F)F)c1)C2 | true (1) |
| O=C(c1ccccn1)[C@]12Cc3cnn(-c4ccc(F)cc4)c3C=C1CCN(S(=O)(=O)c1ccc(C(F)(F)F)cc1)C2 [DAZUCORILANT] | false (0) |
| O=C(c1ccccn1)[C@]12Cc3cnn(-c4ccc(F)cc4)c3C=C1CCN(S(=O)(=O)c1cccc(C(F)(F)F)c1)C2 | true (1) |
